Test: DRUGMATRIX: Sodium/nucleoside co-transporter radioligand binding (ligand: nitrobenzylthioinosine)
Assay type: cell membranes, Cavia porcellus, Dunkin-Hartley, Cerebral cortex, Membrane
Settings: Not Active = under 50% inhibition at 10 µM; read-out: Ki
Property Measured: pKi
Give bare numbers, as −log10 of the molar value.

Can you look up the measured pKi of CCN(CC)C(=S)SSC(=S)N(CC)CC for me?
5.24

====

Experiment: DRUGMATRIX: Tumor Necrosis Factor (TNF), Non-Selective radioligand binding (ligand: [125I] TNF-alpha)
Format: cell membranes, Membrane
Conditions: u-937; Not Active = under 50% inhibition at 10 µM
Property Measured: IC50

{"Molecule": "COc1ccccc1OCCNCC(O)COc1cccc2[nH]c3ccccc3c12 (configuration not stated)", "IC50": "Not Active"}
{"Molecule": "COC(=O)C[C@](O)(CCC(C)(C)O)C(=O)O[C@@H]1C(OC)=C[C@]23CCCN2CCc2cc4c(cc2[C@H]13)OCO4", "IC50": "Not Active"}
{"Molecule": "ClC1=C(Cl)[C@]2(Cl)[C@@H]3[C@@H]4C[C@@H]([C@H]5O[C@@H]45)[C@@H]3[C@@]1(Cl)C2(Cl)Cl", "IC50": "Not Active"}
{"Molecule": "CC12CCC(CC1=O)C2(C)C (configuration not stated)", "IC50": "Not Active"}
{"Molecule": "C[C@]12CC[C@@H](O)C[C@@H]1CC[C@@H]1[C@@H]2CC[C@]2(C)C(=O)CC[C@@H]12", "IC50": "Not Active"}
{"Molecule": "NC(N)=Nc1nc(CSCCC(N)=NS(N)(=O)=O)cs1", "IC50": "Not Active"}
{"Molecule": "NC(=O)NC(=O)Cc1ccccc1 [PHENACEMIDE]", "IC50": "Not Active"}
{"Molecule": "C[N+](C)(C)CCOP(=O)([O-])OC[C@H](O)CO", "IC50": "Not Active"}
{"Molecule": "C[C@@H]1[C@H](O)[C@@H](C)/C=C/C=C/C=C/C=C/C=C/C=C/C=C/[C@H](O[C@@H]2O[C@H](C)[C@@H](O)[C@H](N)[C@@H]2O)C[C@@H]2O[C@](O)(C[C@@H](O)C[C@@H](O)[C@H](O)CC[C@@H](O)C[C@@H](O)CC(=O)O[C@H]1C)C[C@H](O)[C@H]2C(=O)O", "IC50": "Not Active"}
{"Molecule": "Cc1cc(C(C)(C)C)c(O)c(C)c1CC1=NCCN1", "IC50": "Not Active"}

Each of the following entries comes with a recorded value; kindly state IC50 for each.
1. CO[C@@H]1[C@@H](OC)[C@H](C)[C@@](O)(CC(=O)O)O[C@H]1[C@H](C)[C@H]1O[C@@]2(CC[C@@](C)([C@H]3CC[C@@](C)([C@@H]4O[C@@H]([C@H]5O[C@](C)(O)[C@H](C)C[C@@H]5C)C[C@@H]4O[C@@H]4C[C@H](OC)[C@@H](OC)[C@H](C)O4)O3)O2)C[C@H](O)[C@H]1C.N
2. Cl.NC[C@H]1CC[C@H](C(=O)Oc2ccc(CCC(=O)O)cc2)CC1 [CETRAXATE HYDROCHLORIDE]
3. C1CCN2C[C@@H]3C[C@@H](CN4CCCC[C@@H]34)[C@H]2C1
4. Cc1ccc(Cl)c(Nc2ccccc2C(=O)O)c1Cl
5. O=C(O)c1ccccc1
6. c1ccc(Cn2ccnc2)cc1

["Not Active", "Not Active", "Not Active", "Not Active", "Not Active", "Not Active"]

Please supply IC50 for each of the following items, keeping them in order.
1. CC(C)(C)NC[C@H](O)COc1cccc2c1CCCC2=O
2. O=C(c1ccccc1)c1ccc2n1CCC2C(=O)O (configuration not stated)
3. CNC[C@H](O)c1ccc(O)c(O)c1 [EPINEPHRINE]
4. Oc1ccc(/C=C/c2cc(O)cc(O)c2)cc1
5. O=C(OC[C@H]1O[C@@H](OC(=O)c2cc(O)c(O)c(OC(=O)c3cc(O)c(O)c(O)c3)c2)[C@H](OC(=O)c2cc(O)c(O)c(OC(=O)c3cc(O)c(O)c(O)c3)c2)[C@@H](OC(=O)c2cc(O)c(O)c(OC(=O)c3cc(O)c(O)c(O)c3)c2)[C@@H]1OC(=O)c1cc(O)c(O)c(OC(=O)c2cc(O)c(O)c(O)c2)c1)c1cc(O)c(O)c(OC(=O)c2cc(O)c(O)c(O)c2)c1

1. Not Active
2. Not Active
3. Not Active
4. Not Active
5. Not Active

Value sought for every listed molecule: IC50.
1. c1ccc2sc(SSc3nc4ccccc4s3)nc2c1 [BENZOTHIAZYL DISULFIDE]
2. CC(C)(c1ccc(O)cc1)c1ccc(O)cc1
3. CC(N)C12CC3CC(CC(C3)C1)C2 (configuration not stated)
4. Nc1nc(F)nc2c1ncn2[C@@H]1O[C@H](CO)[C@@H](O)[C@@H]1O
5. Cc1cccc(C)c1NC(=O)C(C)N (configuration not stated) [TOCAINIDE]
6. Nc1nc(N)c2nc(-c3ccccc3)c(N)nc2n1
7. CCCCCCNC(=O)n1cc(F)c(=O)[nH]c1=O

1: Not Active; 2: Not Active; 3: Not Active; 4: Not Active; 5: Not Active; 6: Not Active; 7: Not Active

====

Biological target: Nitric oxide synthase, inducible (Mus musculus, UniProt P29477); further: in other assays of this panel Not Active means under 50% inhibition at 10 µM;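 further: inhibition of iNOS enzyme activity measured with L-arginine as substrate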
Sequence (P29477 whole entry): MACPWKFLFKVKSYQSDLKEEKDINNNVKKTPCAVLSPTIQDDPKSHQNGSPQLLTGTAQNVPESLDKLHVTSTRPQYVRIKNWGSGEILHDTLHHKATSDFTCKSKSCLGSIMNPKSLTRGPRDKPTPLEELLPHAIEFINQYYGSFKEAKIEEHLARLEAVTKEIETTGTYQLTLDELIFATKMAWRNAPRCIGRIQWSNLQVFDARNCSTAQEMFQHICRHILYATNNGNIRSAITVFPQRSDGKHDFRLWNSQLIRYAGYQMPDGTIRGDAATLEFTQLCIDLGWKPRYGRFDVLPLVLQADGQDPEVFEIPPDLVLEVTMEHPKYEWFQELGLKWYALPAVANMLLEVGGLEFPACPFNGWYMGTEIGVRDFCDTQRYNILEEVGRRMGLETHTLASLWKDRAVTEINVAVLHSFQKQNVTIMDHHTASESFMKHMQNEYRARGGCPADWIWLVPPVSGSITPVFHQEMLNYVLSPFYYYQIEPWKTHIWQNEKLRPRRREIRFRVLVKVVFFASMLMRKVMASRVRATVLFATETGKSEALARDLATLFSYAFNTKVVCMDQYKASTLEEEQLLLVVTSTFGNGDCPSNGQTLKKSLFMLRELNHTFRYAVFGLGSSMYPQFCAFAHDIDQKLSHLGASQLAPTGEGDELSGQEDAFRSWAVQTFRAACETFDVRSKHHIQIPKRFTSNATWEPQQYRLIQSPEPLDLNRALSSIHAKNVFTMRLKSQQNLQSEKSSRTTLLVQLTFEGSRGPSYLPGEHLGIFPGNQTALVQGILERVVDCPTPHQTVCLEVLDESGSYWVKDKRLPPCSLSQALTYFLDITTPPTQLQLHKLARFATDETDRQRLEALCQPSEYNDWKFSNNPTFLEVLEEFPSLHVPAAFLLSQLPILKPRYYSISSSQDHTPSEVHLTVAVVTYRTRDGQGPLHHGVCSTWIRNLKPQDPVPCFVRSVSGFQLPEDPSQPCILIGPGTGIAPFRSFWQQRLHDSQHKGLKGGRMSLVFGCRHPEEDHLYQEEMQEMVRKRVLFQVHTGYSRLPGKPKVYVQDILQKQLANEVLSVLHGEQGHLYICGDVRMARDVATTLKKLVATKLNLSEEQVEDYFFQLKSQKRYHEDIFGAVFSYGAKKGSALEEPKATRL
Parameters: species or system Escherichia coli
Property Measured: IC50

Observe how each entry below is paired with its result.
{"Compound": "CC[C@H]1OC(=O)[C@H](C)[C@@H](O[C@H]2C[C@@](C)(OC)[C@@H](O)[C@H](C)O2)[C@H](C)[C@@H](O[C@@H]2O[C@H](C)C[C@H](N(C)C)[C@H]2O)[C@](C)(O)C[C@@H](C)C(=O)[C@H](C)[C@@H](O)[C@]1(C)O", "Tested Target": "Nitric oxide synthase, inducible (Mus musculus, UniProt P29477)", "IC50": "Not Active"}
{"Compound": "CC1(COc2ccc(CC3SC(=O)NC3=O)cc2)CCCCC1 (centres undefined)", "Tested Target": "Nitric oxide synthase, inducible (Mus musculus, UniProt P29477)", "IC50": "Not Active"}
{"Compound": "COc1ccc(Cl)cc1C(=O)NCCc1ccc(S(=O)(=O)NC(=O)NC2CCCCC2)cc1 [GLYBURIDE]", "Tested Target": "Nitric oxide synthase, inducible (Mus musculus, UniProt P29477)", "IC50": "Not Active"}
{"Compound": "Clc1cc(Cl)c(OCC#CI)cc1Cl", "Tested Target": "Nitric oxide synthase, inducible (Mus musculus, UniProt P29477)", "IC50": "Not Active"}
{"Compound": "CCOC(=O)C1=C(C)NC(C)=C(C(=O)OCC)C1c1ccccc1/C=C/C(=O)OC(C)(C)C", "Tested Target": "Nitric oxide synthase, inducible (Mus musculus, UniProt P29477)", "IC50": "Not Active"}

Okay, here is my list. What is IC50 for each of these?
1. Nc1nc(N)c2nc(CNc3ccc(C(=O)N[C@@H](CCC(=O)O)C(=O)O)cc3)cnc2n1
2. Cc1c(N)nc([C@H](CC(N)=O)NC[C@H](N)C(N)=O)nc1C(=O)N[C@H](C(=O)N[C@H](C)[C@@H](O)[C@H](C)C(=O)N[C@H](C(=O)NCCc1nc(-c2nc(C(=O)NCCC[S+](C)C)cs2)cs1)[C@@H](C)O)[C@@H](O[C@@H]1O[C@@H](CO)[C@@H](O)[C@H](O)[C@@H]1O[C@H]1O[C@H](CO)[C@@H](O)[C@H](OC(N)=O)[C@@H]1O)c1c[nH]cn1.[Br-]
3. Cc1cn([C@H]2C=C[C@@H](CO)O2)c(=O)[nH]c1=O
4. C=CCc1ccc2c(c1)OCO2
5. CCN1CCN(C(=O)N[C@@H](C(=O)N[C@@H]2C(=O)N3[C@@H]2SC(C)(C)[C@@H]3C(=O)O)c2ccccc2)C(=O)C1=O
6. C=CCO
7. C[C@]12CC[C@@H](O)C[C@@H]1CC[C@@H]1[C@@H]2CC[C@]2(C)C(=O)CC[C@@H]12
8. Cc1cc2c(s1)Nc1ccccc1N=C2N1CCN(C)CC1

1. Not Active
2. Not Active
3. Not Active
4. Not Active
5. Not Active
6. Not Active
7. Not Active
8. Not Active

Fill in: IC50 of O=C(O)CO is ___
Not Active

====

Experiment: DRUGMATRIX: beta-Lactamase enzyme inhibition (substrate: Nitrocefin)
Parameters: species or system Bacillus cereus
Conditions: Not Active = under 50% inhibition at 10 µM
Property Measured: Ki

Use these answered entries as a reference point.
{"Substance": "CHROMIC CHLORIDE", "Property Measured": "Ki", "Experimental Result": "Not Active"}
{"Substance": "POVIDONE", "Property Measured": "Ki", "Experimental Result": "Not Active"}
{"Substance": "LEAD(IV) ACETATE", "Property Measured": "Ki", "Experimental Result": "Not Active"}
{"Substance": "COPPER(II) OXIDE", "Property Measured": "Ki", "Experimental Result": "Not Active"}

Now look at this entry.
Fill in the blank: the reported Ki of CARBOXYMETHYLCELLULOSE is ____.
Not Active
